Every entry's value here was drawn from paper PMC5540273.

# Test system: TGFBR1;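 further: KINOMEscan kinase panel screen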
# Stated conditions: concentration: 1 μM, replicates: in singlicate; n = 1
Rule: measured %Inh below 6% gets Y; anything equal to or greater than 6% gets N.

{"Molecule": "Cl.Cl.c1ccc(-c2cc3ccncc3cc2OC2CCNCC2)cc1", "Classification": "Y"}
{"Molecule": "COc1cc2c(Nc3cccc(NC(=O)c4ccccc4)c3)ncnc2cc1OCCCN1CCOCC1", "Classification": "Y"}
{"Molecule": "OCCOCCn1ccc2ncnc(Nc3ccc(Oc4cccc(Cl)c4)c(Cl)c3)c21", "Classification": "N"}
{"Molecule": "O=C(Nc1ccccc1)Nc1ccc(Oc2ccc3nccn3n2)cc1", "Classification": "Y"}
{"Molecule": "Cl.Cn1ccc(-c2cccc(Nc3ccnc4cc(-c5nccs5)ccc34)c2)n1", "Classification": "N"}
{"Molecule": "CS(=O)(=O)CCNCc1ccc(-c2ccc3ncnc(Nc4ccc(OCc5ccccc5)c(Cl)c4)c3c2)o1.Cl", "Classification": "N"}
{"Molecule": "Nc1nc(-c2cccnc2)c(-c2ccnc3ccccc23)s1", "Classification": "Y"}
{"Molecule": "CCc1nc(-c2cccc(C)c2)c(-c2ccnc(NC(=O)c3ccccc3)c2)s1", "Classification": "N"}
{"Molecule": "Cl.Fc1ccccc1COc1ccc(Nc2ncnc3ccc(-c4nnc(C(F)(F)F)o4)cc23)cc1Cl", "Classification": "Y"}
{"Molecule": "Clc1cc(Nc2ncnc3cc[nH]c23)ccc1OCc1ccccn1", "Classification": "N"}
{"Molecule": "Cl.c1ccc(Cn2ccc3cc(Nc4ncnc5ccccc45)ccc32)cc1", "Classification": "N"}
{"Molecule": "Cn1ccc2ncnc(Nc3ccc(Oc4cccc(Cl)c4)c(Cl)c3)c21", "Classification": "Y"}
{"Molecule": "Cn1cc(-c2ccc3c(c2)CCN3C(=O)Cc2cccc(C(F)(F)F)c2)c2c(N)ncnc21", "Classification": "Y"}
{"Molecule": "Fc1ccc(Nc2nccc(-c3c(-c4ccc(Cl)cc4)nn4ncccc34)n2)cc1F", "Classification": "Y"}
{"Molecule": "CC(=O)Nc1n[nH]c2ncc(-c3ccccc3)cc12", "Classification": "Y"}
{"Molecule": "FC(F)(F)c1ccc(-c2nn3ncccc3c2-c2ccnc(Nc3cccc(C(F)(F)F)c3)n2)cc1", "Classification": "Y"}
{"Molecule": "Fc1ccc(-c2ncn(CCCNCc3ccccc3)c2-c2ccncc2)cc1", "Classification": "Y"}
{"Molecule": "CSc1nn2c(=O)cc(N3CCOCC3)nc2n1Cc1cccc(Cl)c1Cl", "Classification": "Y"}
{"Molecule": "Nc1nc(-c2ccc3c(N)n[nH]c3c2)cc(N2CCC[C@@H](C(=O)Nc3ccccc3)C2)n1.O=C(O)C(F)(F)F.O=C(O)C(F)(F)F", "Classification": "N"}
{"Molecule": "Fc1cccc(COc2ccc(Nc3ncnc4nn5ccccc5c34)cc2Cl)c1", "Classification": "Y"}
{"Molecule": "FC(F)(F)c1cc(Nc2nccc(-c3c(-c4ccc(Cl)cc4)nn4ncccc34)n2)ccc1Cl", "Classification": "N"}
{"Molecule": "COC(=O)c1c(-c2ccccc2)c2cc(Cl)ccc2c(=O)n1Cc1ccc(S(C)(=O)=O)cc1", "Classification": "N"}
{"Molecule": "CCn1c(-c2ccncc2)nc2cnccc21", "Classification": "Y"}
{"Molecule": "O=C(CCO)NCCn1ccc2ncnc(Nc3ccc(Oc4cccc(C(F)(F)F)c4)c(Cl)c3)c21", "Classification": "Y"}
{"Molecule": "CCCc1ccc(S(=O)(=O)NC2CCN(c3ccnc(Nc4ccc(OC)cc4)n3)C2)cc1 (stereo not drawn)", "Classification": "N"}
